The reported numbers originate from patent US20220064302A1.

Below, each entry is listed with its recorded Kd.
biological target: T1, Cyno PD-1 (cyno); experiment: BLI, mAb on AHC biosensor, cyno PD-1 as analyte
T1 construct: also called cynomolgus PD-1
VALUE TYPE: Kd (nM)

>>> value_observed("A6 (antibody, V domains shown, Tested as full-length mAb expressed in CHO cells; also called antibody A6; L6H6) VH: QVQLVESGGGVVQPGRSLRLSCAASGFTFSSYGMHWVRQAPGKGLEWVAVIWYDGSNKYYADSVKGRFTISRDNSKNTLYLQMNSLRAEDTAVYYCAGGGNYWGDFWGQGTLVTVSS VL: DIQMTQSPSSLSASVGDRVTITCRASQGIRNDLGWYQQKPGKAPKRLLYAASNLQLGVPSRFSGSGSETEFTLTISSLQPEDFATYYCLQHNSYPWTFGQGTKVEIKR")
26
>>> value_observed("Pembrolizumab (antibody, V domains shown) VH: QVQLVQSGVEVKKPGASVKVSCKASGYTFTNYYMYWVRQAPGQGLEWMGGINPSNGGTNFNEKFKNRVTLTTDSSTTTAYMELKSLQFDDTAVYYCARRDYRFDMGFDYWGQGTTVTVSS VL: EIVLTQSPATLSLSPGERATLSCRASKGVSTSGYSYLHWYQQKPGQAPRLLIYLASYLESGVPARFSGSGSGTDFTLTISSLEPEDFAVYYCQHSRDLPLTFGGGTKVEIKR")
14
>>> value_observed("A4 (antibody, V domains shown, Tested as full-length mAb expressed in CHO cells; also called antibody A4; L4H4) VH: QVQLVQSGAEVKKPGASVKVSCKASGYTFATYGVSWVRQAPGQGLEWMGWISAYSDNINYAQNLQGRVTITTDTSTSTAYMELRSLRSDDTAVYYCARDGSHGDYYYGMDVWGQGTTVTVSS VL: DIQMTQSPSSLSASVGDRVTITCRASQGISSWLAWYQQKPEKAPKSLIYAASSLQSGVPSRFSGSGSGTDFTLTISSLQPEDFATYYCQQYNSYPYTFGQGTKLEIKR")
0.1
